src = paper PMC4081100

So I've got a bunch of sequences here, and I need their binding signal values.
Target: GST-NTL8 NAC domain (Arabidopsis thaliana, UniProt Q9XIN7 14-156)
Sequence: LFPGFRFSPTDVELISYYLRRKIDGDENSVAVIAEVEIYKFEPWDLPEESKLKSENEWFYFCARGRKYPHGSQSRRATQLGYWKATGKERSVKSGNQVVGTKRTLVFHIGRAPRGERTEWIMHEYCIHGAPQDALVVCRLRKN
Assay: universal protein binding microarray (PBM); transcription factors of Arabidopsis thaliana; high values mean tight binding
Details: protein: recombinant; tags: GST; chain copies: 2; dsDNA, one strand shown
One number for each entry, in E-score.

Below, each entry is followed by its recorded binding signal result.
1) TAGAGTAA
0.065
2) GACTTGAC
0.0707

(Q) Item GAGGAAAC has what recorded binding signal?
(A) 0.465
